Listed binders paired with reported Bmax
Molecular target: human Siglec-8 (full-length, on transfected CHO or 293 cells, or native on human eosinophils) (human, UniProt Q9NYZ4 17-499)
Sequence (Q9NYZ4 17-499): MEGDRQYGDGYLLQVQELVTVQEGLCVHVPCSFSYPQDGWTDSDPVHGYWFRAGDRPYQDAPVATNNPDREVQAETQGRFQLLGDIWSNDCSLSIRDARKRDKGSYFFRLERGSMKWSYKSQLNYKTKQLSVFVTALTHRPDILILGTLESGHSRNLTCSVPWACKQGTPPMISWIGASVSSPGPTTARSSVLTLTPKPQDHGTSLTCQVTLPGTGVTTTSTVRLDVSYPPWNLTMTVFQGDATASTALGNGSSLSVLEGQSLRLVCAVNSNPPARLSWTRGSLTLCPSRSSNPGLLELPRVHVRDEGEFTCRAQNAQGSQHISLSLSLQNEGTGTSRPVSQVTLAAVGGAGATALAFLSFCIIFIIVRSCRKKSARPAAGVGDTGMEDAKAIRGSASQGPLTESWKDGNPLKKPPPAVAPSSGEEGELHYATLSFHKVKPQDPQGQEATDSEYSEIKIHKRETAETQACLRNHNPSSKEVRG
Experiment: flow cytometry on 293 cells transiently transfected with full-length human Siglec-8; A647 anti-human Fc-gamma secondary; median fluorescence, nonlinear fit; table under the graph

Siglec8 hzG2v6.1, monomeric VHH-hIgG1 fusion (Fc NNT) (Fc fusion, Monomeric format; not shown: non-dimerizing human IgG1 Fc variant lacking a hinge (Fc NNT)) EVQLLESGGGEVQPGGSLRLSCAASGSISIFSMYVVAWYRQAPGKQREWVSFIQRGGTANYAESAKGRFTISRDNAKNTVYLQMSSLRAEDTAVYYCNYINSDNEIGGPWGQGTLVTVKP ... 3.63e+06 Median (anti-human A647)

Please look at the following binder next.
Prompt line: Endpoint output: Bmax of Siglec8 hzG2v13, monomeric VHH-hIgG1 fusion (Fc NNT) (Fc fusion, Monomeric format; not shown: non-dimerizing human IgG1 Fc variant lacking a hinge (Fc NNT)) EVQLLESGGGEVQPGGSLRLSCAASGSISIFSMYVVAWYRQAPGKEREWVAFIQRGGTANYAESAKGRFTISRDNAKNTVYLQMSSLRAEDTAVYYCNYITSDNEIGGPWGQGTLVTVKP . Value?
Response line: 1.06e+06 Median (anti-human A647)
